# Tested on: RPMI-8226
# Assay method text: NCI tumour cell line growth inhibition, 48 h
Calls of active or inactive are those of the source. No stated cut-off is given here; in the data, active = GI50 up to about 1.1 µM and inactive = higher.
Permitted responses: active, inactive

Reference set, count: 9
CO/N=C(\C)c1ccc(Nc2c3ccccc3nc3occc23)cc1 :: active
COC1/C=C\C=C(/C)C(=O)NC2=CC(=O)C(N)=C(CC(C)CC(OC)C(O)C(C)C=C(C)C1OC(N)=O)C2=O (stereo not given) :: active
NC(=O)CCC(NC(=O)Cc1ccccc1)C(=O)O.NC(CCC(=O)NC(=O)Cc1ccccc1)C(=O)O (stereo not given) :: inactive
COC(=O)/C=C(/C(=O)OC)C1(C)c2cc(C(=O)OC)c(C(=O)OC)c(N)c2C(=N)N1c1ccccc1 (stereo not given) :: inactive
C/C(CC(=O)N(C(C)C)C(C)C)=N\NC(=O)c1ccncc1 :: inactive
C=C1C(=O)OC2CC3(C)OC3CC/C(C)=C/C(OC(C)=O)C12 (stereo not given) :: inactive
CCOc1cc(C(c2c(O)c3ccccc3oc2=O)c2c(O)c3ccccc3oc2=O)ccc1OC :: inactive
COc1cc(/C=C/C(C)=O)ccc1OP(=O)(O)O :: inactive
Nc1ncnc2c1nc(O)n2-c1ccccc1 :: inactive

Would you kindly look at the next entry?
Incoming: Please state the recorded outcome for this compound: `COC(=O)CC(=O)Nc1sccc1S(=O)(=O)c1ccccc1`
Outgoing: inactive

----------
# Test system: NCI-H522
# Assay method text: NCI tumour cell line growth inhibition, 48 h
Activity calls are given as the source filed them. Rule as the data show it: active = GI50 up to about 1.1 µM and inactive = higher.
As shown below, each of these compounds has a reported GI50 value.

Some compounds with recorded GI50:
N=C(N)SCc1cccc(-c2nc3ccccc3c(=O)o2)c1 :: > 100 µM (inactive)
Cc1ccc(S(=O)(=O)C2=c3nc4ccccc4cc3=C3C(=O)c4ccccc4C(=O)C32)cc1 (stereo unspecified) :: > 100 µM (inactive)
Cc1ccc(C2=Nn3c(nc4sc5c(c4c3=O)CCCC5)SC2)cc1 :: > 100 µM (inactive)
COc1cc2ccc(/C(C)=N/OC(C)=O)cc2cc1OC :: 22.4 µM (inactive)
COc1cc(OC(C)=O)cc2c(OC(C)=O)ccc(OC(C)=O)c12 :: > 100 µM (inactive)

Read the next record carefully.
Incoming: For the compound shown here, `CCOC(=O)C(=O)Nc1c(C)cccc1C(C)(C)C` , give the reported GI50.
Outgoing: > 100 µM (inactive)

----------
# System: Hs-578T
# Assay method text: NCI tumour cell line growth inhibition, 48 h
Calls of active or inactive are those of the source. Rule as the data show it: active = GI50 up to about 1.1 µM and inactive = higher.
Endpoint: GI50

CC1=NN(c2cccc(Cl)c2)C2(C1=Cc1cccs1)C(Cl)C(=O)N2c1nc2ccccc2s1 (stereo unspecified) :: 27.4 µM (inactive)

Read the next record carefully.
Incoming: For the molecule shown here, CC(C)(C)OC(=O)NC(Cc1c[nH]cn1)C(=O)N1CCCC1C(N)=O (stereo unspecified) , give the reported GI50.
Outgoing: > 100 µM (inactive)

----------
# System: 786-0
# Assay method text: NCI tumour cell line growth inhibition, 48 h
Calls of active or inactive are those of the source. No stated cut-off is given here; in the data, active = GI50 up to about 1.1 µM and inactive = higher. Peptide text beside a SMILES is read from it.
Endpoint: GI50

Some compounds with recorded GI50:
CC(C)CC(NC(=O)C(CC(C)C)NC(=O)C(Cc1c[nH]cn1)NC(=O)C(C)NC(=O)C(NC(=O)C(C)NC(=O)C(Cc1c[nH]c2ccccc12)NC(=O)C(CCC(=O)O)NC(=O)C(N)Cc1ccccc1)C(C)C)C(N)=O (stereo not drawn) (H-FEWAVAHLL-NH2; configuration not given here) :: > 12.5 µM (inactive)
CC(C)(C)OC(=O)N(O)CCCn1cnc2c(NC3CC3)ncnc21 :: > 100 µM (inactive)

Read the next record carefully.
Incoming: Given the entry `Nc1nc(N)c(CCCCc2ccccc2)c(/C=C/c2ccc([N+](=O)[O-])cc2)n1` , what GI50 was observed with 786-0?
Outgoing: 0.785 µM (active)

----------
# System: SW-620
# Assay method text: NCI tumour cell line growth inhibition, 48 h
Active and inactive are the calls of the source. No stated cut-off is given here; in the data, active = GI50 up to about 1.1 µM and inactive = higher.
Permitted responses: yes (1) for active, no (0) for inactive

Reference set, count: 5
COc1ccc(N2C(=O)c3cccnc3S2(=O)=O)cc1 :: no (0)
O=C(/C=C/c1ccccc1Br)c1ccccc1 :: no (0)
CCOC(=O)C12C(=O)CCN1CCc1ccccc1C2C (stereo unspecified) :: no (0)
O=C1Oc2ccccc2C(=O)/C1=C/N1C(=O)N/C(=C\c2ccccc2O)C1=O :: no (0)
COc1cc(OC(C)=O)cc2c(OC(C)=O)ccc(OC(C)=O)c12 :: no (0)

Incoming: Please state the recorded outcome for this compound: `O=C(Nc1cccc2ccccc12)Oc1ccccc1C1CCCCC1`
Outgoing: no (0)

Incoming: What do you get for NC(=O)CCC(NC(=O)Cc1ccccc1)C(=O)O.NC(CCC(=O)NC(=O)Cc1ccccc1)C(=O)O (stereo unspecified) ?
Outgoing: no (0)

Incoming: What do you get for `O=C(N/N=C/c1cc(Cl)cc(Cl)c1O)c1ccccc1O` ?
Outgoing: yes (1)

Incoming: What do you get for `O=C(C(=O)c1cc(-c2ccccc2)nc2ccc3ccccc3c12)c1ccccc1` ?
Outgoing: no (0)

Incoming: What do you get for `Cc1c2n(c3ccccc13)S(=O)(=O)c1ccccc1-2` ?
Outgoing: no (0)

Incoming: What do you get for `N=C(N)SCc1cccc(-c2nc3ccccc3c(=O)o2)c1` ?
Outgoing: no (0)

----------
As shown below, each of these compounds has a reported GI50 value.
# Tested on: SN12C
# Assay method text: NCI tumour cell line growth inhibition, 48 h
Activity calls are given as the source filed them. Cut-off read from the data, not from the text of the source: active = GI50 up to about 1.1 µM and inactive = higher.

Some compounds with recorded GI50:
CCOC(=O)C1=C(O)C(=O)c2ccoc2C1=O :: > 100 µM (inactive)
O=C(NC(O)(C(F)(F)F)C(F)(F)F)c1ccccc1 :: > 100 µM (inactive)
COc1ccc(-c2oc3c(OC)c(OC)c(OC)c(OC)c3c(=O)c2OC)cc1OC :: 93.3 µM (inactive)
CC(=O)OCCC[C@@H]1C(=C(C)C)CCC2[C@@]1(C)CC[C@@]1(C)C[C@](C)(CCC=C(C)C)CC[C@]21C (some centres not stated) :: > 100 µM (inactive)
COC(OC)(c1ccccc1)C(I)I :: 20.1 µM (inactive)
O=C(N/N=C/c1cc(Cl)cc(Cl)c1O)c1ccccc1O :: 2.36 µM (inactive)
CC(=O)OCC1OC(n2c(=S)n(-c3ccccc3)c(=O)c3cc(Br)ccc32)C(OC(C)=O)C1OC(C)=O (configuration not stated) :: > 100 µM (inactive)
COc1cc(Oc2c(O)c(C)c(OC)c(C(C)=O)c2O)c(C(C)=O)c(O)c1C :: 34.9 µM (inactive)

Read the next record carefully.
Incoming: For the compound shown here, C=C1C(=O)OC2/C=C(CO)/C=C\C3OC3(C)CC(OC(=O)/C(C)=C/COC(C)=O)C12 (configuration not stated) , give the reported GI50.
Outgoing: 2.21 µM (inactive)

----------
# System: HCC 2998
# Assay method text: NCI tumour cell line growth inhibition, 48 h
Activity calls are given as the source filed them. Cut-off read from the data, not from the text of the source: active = GI50 up to about 1.1 µM and inactive = higher.
As shown below, each of these compounds has a reported GI50 value.

COC1OC(CO)C(O)C(O)C1Br (configuration not stated) :: > 100 µM (inactive)
COc1cc(/C=C/C(=O)CC(=O)/C=C/c2cc(OC)c(O)c(OC)c2)cc(OC)c1O :: 5.37 µM (inactive)
COc1ccc(CN(Cc2ccc(OC)cc2)C(=O)CC2(O)CCc3ccccc3C2)cc1 (configuration not stated) :: 68.9 µM (inactive)

Incoming: Given the entry `Cc1ccc(C)c2c1CCc1cc3ccccc3nc1-2` , what GI50 was observed with HCC 2998?
Outgoing: > 100 µM (inactive)

Incoming: What do you get for `COC(=O)[C@H](Cc1ccccc1)NC(=O)c1ccc(CNC(=O)/C=C/c2ccc(-c3ccccc3)cc2)cc1` ?
Outgoing: 11.5 µM (inactive)

Incoming: What do you get for C1=NN2C(c3ccccc3)=NOC2C2C(c3ccccc3)=NOC12 (configuration not stated) ?
Outgoing: > 100 µM (inactive)

Incoming: What do you get for `CC1(C)CC[C@]2(C(=O)O)CC[C@]3(C)C(=CC[C@@H]4[C@@]5(C)CC[C@@H]6OC(C)(C)OC[C@@]6(C)[C@@H]5CC[C@]43C)[C@H]2C1` ?
Outgoing: 13.2 µM (inactive)

Incoming: What do you get for `O=C(Nc1cccc2ccccc12)Oc1ccccc1C1CCCCC1` ?
Outgoing: 18.5 µM (inactive)

Incoming: What do you get for Cc1cc2nn(C3CCCO3)nc2cc1C (configuration not stated) ?
Outgoing: > 100 µM (inactive)

----------
# Tested on: UACC-62
# Assay method text: NCI tumour cell line growth inhibition, 48 h
Active and inactive are the calls of the source. Cut-off read from the data, not from the text of the source: active = GI50 up to about 1.1 µM and inactive = higher.
Permitted responses: 1 for active, -1 for inactive

N#CC(C#N)[C@@H]1CCC=C(Sc2ccccc2)[C@H]1Sc1ccccc1 :: -1
Cc1nc2sc3ccccc3n2c(=O)c1/N=N/c1ccc(Br)cc1 :: -1
O=C1C=C(N2CCCC2)C=C(N2CCCC2)C1 :: -1
CN(CCCNC(=O)c1cc(-c2ccccc2)nc2ccccc12)CCCNC(=O)c1cc(-c2ccccc2)nc2ccccc12 :: -1
O=C(O)c1ccc(Nc2nc3ccc(C(F)(F)F)cc3nc2C(=O)O)cc1 :: -1
COC(=O)C1=C(C)NC(C)=C(C(=O)OC)C1c1nc2sccn2c1[N+](=O)[O-] :: -1

Incoming: Please state the recorded outcome for this compound: Cc1ccc(C2SC(=N)Nc3c2c(C)nn3C(=O)c2ccc(Cl)cc2)cc1 (stereo unspecified)
Outgoing: -1

Incoming: What do you get for `Cc1c(C(=O)N2CCN(c3ccc([N+](=O)[O-])cc3)CC2)[n+]([O-])c2cc(Cl)c(Cl)cc2[n+]1[O-]` ?
Outgoing: -1

Incoming: What do you get for `C/C(CC(=O)N(C(C)C)C(C)C)=N\NC(=O)c1ccncc1` ?
Outgoing: -1

Incoming: What do you get for `CCN(CC)P1(=S)Oc2ccc3ccccc3c2-c2c(ccc3ccccc23)O1` ?
Outgoing: -1

Incoming: What do you get for CC(C)CCCCCCCCCCCCC(=O)NCC(=O)NC1C(O)C(O)C(Nc2[nH]cnc3ncnc2-3)OC1C(O)CO (stereo unspecified) ?
Outgoing: 1

Incoming: What do you get for CC(C)C(/N=C/c1ccccc1O)C(=O)O (stereo unspecified) ?
Outgoing: -1

Incoming: What do you get for `O=C(CCCCCCCCC(=O)N1C(=O)CC(=O)N(c2cccc(Cl)c2)C1=S)N1C(=O)CC(=O)N(c2cccc(Cl)c2)C1=S` ?
Outgoing: -1

Incoming: What do you get for `O=C(O)c1nc2ccccc2nc1Nc1ccc(F)cc1` ?
Outgoing: -1

Incoming: What do you get for `O=C(OCc1ccccc1)N(CCCCN(CCCNCc1ccccc1)C(=O)OCc1ccccc1)CCCNCc1ccccc1` ?
Outgoing: 1

Incoming: What do you get for Cc1cccc(NC2=NC(=O)C(CC(=O)Nc3cccc(C)c3C)S2)c1 (stereo unspecified) ?
Outgoing: -1

Incoming: What do you get for CN(Cc1cc(Cl)cc(Cl)c1)CC(C(=O)c1ccccc1)c1ccccc1 (stereo unspecified) ?
Outgoing: -1

Incoming: What do you get for `CCOc1cc(C(c2c(O)c3ccccc3oc2=O)c2c(O)c3ccccc3oc2=O)ccc1OC` ?
Outgoing: -1
